- assayed-target: GB1-SRSF1 RRM2 R142A (human, UniProt Q07955 107-203, R142A)
- Sequence (Q07955 107-203 R142A): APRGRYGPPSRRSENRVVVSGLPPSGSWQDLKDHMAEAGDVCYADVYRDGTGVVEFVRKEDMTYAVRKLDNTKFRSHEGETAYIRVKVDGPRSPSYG
- assay-comment: ITC

{"binder": "AGGAC (ssRNA) [5'-AGGAC-3' RNA]", "Kd (µM)": 7}
